# Tested Target: PRMT6 (Homo sapiens, UniProt Q96LA8)
# Sequence (Q96LA8 whole entry): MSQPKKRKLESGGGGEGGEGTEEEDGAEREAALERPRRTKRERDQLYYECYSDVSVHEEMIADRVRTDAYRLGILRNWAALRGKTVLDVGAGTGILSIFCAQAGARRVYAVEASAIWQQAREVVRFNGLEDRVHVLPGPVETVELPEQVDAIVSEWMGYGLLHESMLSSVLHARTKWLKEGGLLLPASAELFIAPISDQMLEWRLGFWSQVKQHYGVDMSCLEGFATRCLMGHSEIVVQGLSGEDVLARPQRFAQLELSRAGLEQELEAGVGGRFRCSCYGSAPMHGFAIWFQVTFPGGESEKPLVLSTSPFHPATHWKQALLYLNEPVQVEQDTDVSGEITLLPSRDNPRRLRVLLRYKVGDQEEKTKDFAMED
Value Type: IC50

• CNCCN(C)Cc1ccccc1C1CCN(c2ccccc2)CC1 = < 0.05 µM

----------
# Tested Target: PRMT3 (Homo sapiens)
# Sequence (O60678 whole entry): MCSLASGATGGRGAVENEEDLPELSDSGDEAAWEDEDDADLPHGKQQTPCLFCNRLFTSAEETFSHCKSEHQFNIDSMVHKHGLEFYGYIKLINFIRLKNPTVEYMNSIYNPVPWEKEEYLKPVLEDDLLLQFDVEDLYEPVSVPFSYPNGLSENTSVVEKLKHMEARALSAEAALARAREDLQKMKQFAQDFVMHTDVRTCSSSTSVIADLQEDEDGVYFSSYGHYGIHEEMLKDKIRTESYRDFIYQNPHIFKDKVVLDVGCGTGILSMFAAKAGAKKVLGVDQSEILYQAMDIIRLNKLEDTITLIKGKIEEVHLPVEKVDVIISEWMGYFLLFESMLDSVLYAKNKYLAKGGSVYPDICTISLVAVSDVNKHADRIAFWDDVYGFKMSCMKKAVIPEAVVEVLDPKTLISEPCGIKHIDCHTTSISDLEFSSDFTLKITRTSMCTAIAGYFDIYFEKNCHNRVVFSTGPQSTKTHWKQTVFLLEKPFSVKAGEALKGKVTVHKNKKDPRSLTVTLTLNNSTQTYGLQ
Value Type: IC50

* CNCCN(C)Cc1ncccc1N1CCc2ccccc2CC1 | 0.05 to 0.5 µM

----------
pIC50: −log10 of the molar value.
pIC50 data for PRMT1 (Homo sapiens) follow.
Value Type: pIC50

* CNCCN(C)Cc1ncccc1N1CCC(COc2ccc(C(F)(F)F)cc2)CC1 | > 7.30
* CNCCN(C)Cc1ncccc1N1CCN(C(C)C)CC1 | > 7.30
* CNCCN(C)Cc1ccccc1C1=CCN(C(C)C)CC1 | > 7.30
* CNCCN(C)Cc1ncccc1N1CCc2ccc(N)cc2CC1 | > 7.30
* CCc1cccc(N2CCC(c3cc(F)ccc3CN(C)CCNC)CC2)c1 | > 7.30
* CNCCN(C)Cc1ncccc1C1CCN(C(=O)c2ccccc2)CC1 | 6.30 to 7.30
* CNCCN(C)Cc1ncccc1N1CCCOCC1 | > 7.30
* CNCCN(C)Cc1ncccc1N1CCc2ccccc2CC1 | > 7.30
* CNCCN(C)Cc1ccccc1[C@H]1CC[C@@]2(CCCCO2)CC1 | > 7.30
* CNCCN(C)Cc1ncccc1C1CCN(c2cnc(C#N)nc2)CC1 | > 7.30
* CNCCN(C)Cc1ncccc1C1CCN(c2cccc(OC(F)(F)F)c2)CC1 | > 7.30
* CNCCN(C)Cc1ccc(F)cc1N1CCCN(c2ccccc2)CC1 | > 7.30
* CNCCN(C)Cc1ncccc1N1CCC(Oc2cccnc2)CC1 | > 7.30
* CNCCN(C)Cc1ncccc1N1CCC(N2CCCC(C(=O)NC)C2)CC1 (centres unmarked) | ≤ 6.30
* CCC1CC=C(c2ccccc2CN(C)CCNC)CC1 (centres unmarked) | > 7.30
* CCOCC1CCCN(c2cccnc2CN(C)CCNC)C1 (centres unmarked) | 6.30 to 7.30
* CNCCN(C)Cc1ncccc1N1CC[C@H](OC)[C@H](OC)CC1 | 6.30 to 7.30
* CNCCN(C)Cc1ccccc1C1CCN(c2ccc(C(F)(F)F)cc2)CC1 | > 7.30
* CNCCN(C)Cc1ncccc1N1CCC(N2CCN(C(C)C)CC2)CC1 | ≤ 6.30
* CNCCN(C)Cc1ncccc1C1CCN(c2cc(C)cc(F)c2)CC1 | > 7.30
* CNCCN(C)Cc1cc(C(=O)N(C)C)ccc1C1CCN(c2cccc(C)c2)CC1 | ≤ 6.30
* CNCCN(C)Cc1ncccc1C1CCN(c2nc(C)nc3ccccc23)CC1 | > 7.30
* CNCCN(C)Cc1cc(F)ccc1[C@H]1CC[C@H](c2cccc(C)c2)CC1 | > 7.30
* CNCCN(C)Cc1ncccc1C1CCN(c2ncccn2)CC1 | > 7.30
* CNCCN(C)Cc1ncccc1N1CCC(Nc2ccccc2)CC1 | > 7.30
* CNCCN(C)Cc1ncccc1N1CCC(NC2CCOCC2)CC1 | ≤ 6.30
* CNCCN(C)Cc1ccc(N(C)C)nc1C1CCN(c2cccc(C)c2)CC1 | > 7.30
* CNCCN(C)Cc1ncccc1N1CCC(Oc2ccc(F)cc2)CC1 | > 7.30
* CNCCN(C)Cc1ccc(C)nc1C1CCN(c2cc(C)c(F)cc2F)CC1 | > 7.30
* CNCCN(C)Cc1ncccc1N1CCc2cc(F)c(F)cc2CC1 | > 7.30
* CNCCN(C)Cc1ncccc1C1CCN(c2cccc(F)c2)CC1 | > 7.30
* CNCCN(C)Cc1ccc2[nH]ncc2c1N1CCc2ccccc2CC1 | > 7.30
